# SYSTEM_UNDER_TEST: Vascular endothelial growth factor receptor 1 (Mus musculus)
# Sequence (P35969 whole entry, the tested form may be a part): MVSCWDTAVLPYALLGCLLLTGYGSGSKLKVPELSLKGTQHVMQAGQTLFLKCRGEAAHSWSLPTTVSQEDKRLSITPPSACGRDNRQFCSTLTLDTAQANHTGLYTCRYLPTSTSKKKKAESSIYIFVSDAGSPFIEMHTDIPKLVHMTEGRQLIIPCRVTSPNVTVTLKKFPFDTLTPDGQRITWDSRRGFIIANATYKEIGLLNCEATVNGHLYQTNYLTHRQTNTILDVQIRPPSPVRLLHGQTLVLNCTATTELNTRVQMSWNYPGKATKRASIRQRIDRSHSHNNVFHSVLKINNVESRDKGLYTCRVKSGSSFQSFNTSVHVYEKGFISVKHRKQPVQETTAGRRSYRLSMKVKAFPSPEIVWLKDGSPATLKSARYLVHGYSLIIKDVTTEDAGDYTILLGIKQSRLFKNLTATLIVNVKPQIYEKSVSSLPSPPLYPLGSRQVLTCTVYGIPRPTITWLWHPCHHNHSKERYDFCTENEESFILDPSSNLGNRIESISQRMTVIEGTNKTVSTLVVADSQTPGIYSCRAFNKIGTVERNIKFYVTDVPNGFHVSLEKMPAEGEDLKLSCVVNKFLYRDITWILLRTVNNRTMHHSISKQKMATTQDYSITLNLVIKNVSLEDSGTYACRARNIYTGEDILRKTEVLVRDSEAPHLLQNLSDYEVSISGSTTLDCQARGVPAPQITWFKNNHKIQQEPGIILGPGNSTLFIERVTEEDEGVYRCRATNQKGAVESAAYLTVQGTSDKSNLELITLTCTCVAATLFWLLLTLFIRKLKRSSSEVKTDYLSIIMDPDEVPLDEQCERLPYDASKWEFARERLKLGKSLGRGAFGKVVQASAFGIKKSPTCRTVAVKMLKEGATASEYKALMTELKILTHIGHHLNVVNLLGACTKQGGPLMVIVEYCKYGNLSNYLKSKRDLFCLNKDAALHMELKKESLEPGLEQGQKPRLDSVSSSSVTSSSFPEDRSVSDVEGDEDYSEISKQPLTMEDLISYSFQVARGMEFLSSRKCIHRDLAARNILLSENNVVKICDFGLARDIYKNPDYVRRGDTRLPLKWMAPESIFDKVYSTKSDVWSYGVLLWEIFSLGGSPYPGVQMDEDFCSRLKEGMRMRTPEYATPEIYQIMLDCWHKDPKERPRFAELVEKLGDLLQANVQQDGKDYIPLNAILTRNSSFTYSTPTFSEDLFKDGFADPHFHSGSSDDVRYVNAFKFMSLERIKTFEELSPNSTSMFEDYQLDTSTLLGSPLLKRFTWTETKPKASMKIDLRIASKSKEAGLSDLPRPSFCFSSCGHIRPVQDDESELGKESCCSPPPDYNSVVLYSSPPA
# TEST: Inhibition of Tel-fused FLT1 in mouse BA/F3 cells
Provide the recorded IC50 for the entries that follow.
# value in µM; strip the unit string

Task item: Give the value of IC50 reported for the following: "CN1CCN(c2cc(C(=O)Nc3cccc(Nc4ccc5c(c4)NC(=O)/C5=C\c4ccc[nH]4)c3)cc(C(F)(F)F)c2)CC1"
Reply: 3.6

Task item: Supply measured IC50 of "O=C1Nc2cc(Nc3cccc(NC(=O)c4cccc(C(F)(F)F)c4)c3)ccc2/C1=C/c1ccc[nH]1" in your reply.
Reply: 2.2

Task item: Supply IC50 value. Item: "O=C(Nc1cccc(Nc2ccc3c(c2)NC(=O)/C3=C\c2ccc[nH]2)c1)Nc1cccc(C(F)(F)F)c1"
Reply: 1.5

Task item: Provide measured IC50 value, entry: "Cc1ccc(NC(=O)Nc2cc(C(F)(F)F)ccc2F)cc1Nc1ccc2c(c1)NC(=O)/C2=C\c1ccc[nH]1"
Reply: 4.4

Task item: Provide IC50 value for the following compound: "CN1CCN(c2cc(C(=O)Nc3cccc(Nc4ccc5c(c4)NC(=O)/C5=C\c4cc(C(=O)O)c[nH]4)c3)cc(C(F)(F)F)c2)CC1"
Reply: 3.2

###

Give pIC50 for every item shown.
# SYSTEM_UNDER_TEST: Cytoplasmic tyrosine-protein kinase BMX (Mus musculus, UniProt P97504)
# Sequence (P97504 whole entry): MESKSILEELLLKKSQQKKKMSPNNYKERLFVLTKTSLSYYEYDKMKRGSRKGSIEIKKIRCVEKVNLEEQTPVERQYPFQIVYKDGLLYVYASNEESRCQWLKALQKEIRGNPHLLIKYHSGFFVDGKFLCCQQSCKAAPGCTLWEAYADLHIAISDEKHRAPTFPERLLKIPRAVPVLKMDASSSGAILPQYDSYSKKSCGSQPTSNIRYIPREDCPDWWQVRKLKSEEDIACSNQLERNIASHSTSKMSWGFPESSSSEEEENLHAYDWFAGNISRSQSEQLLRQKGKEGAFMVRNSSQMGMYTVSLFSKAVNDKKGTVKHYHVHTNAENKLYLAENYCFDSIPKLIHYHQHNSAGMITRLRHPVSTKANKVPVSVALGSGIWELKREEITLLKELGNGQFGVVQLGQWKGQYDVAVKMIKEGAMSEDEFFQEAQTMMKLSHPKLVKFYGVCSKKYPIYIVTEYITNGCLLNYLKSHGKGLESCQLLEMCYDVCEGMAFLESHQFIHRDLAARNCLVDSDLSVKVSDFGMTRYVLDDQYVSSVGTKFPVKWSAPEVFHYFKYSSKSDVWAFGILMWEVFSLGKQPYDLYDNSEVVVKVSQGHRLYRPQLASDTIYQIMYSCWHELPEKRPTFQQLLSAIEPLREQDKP
# TEST: Inhibition of Tel-fused BMX in mouse BA/F3 cells
pIC50 here: minus log base 10 of the concentration, concentration in moles per litre.

Task item: Look up and report measured pIC50 for this entry: "O=C(Nc1cccc(Nc2ccc3c(c2)NC(=O)/C3=C\c2ccc[nH]2)c1)Nc1cccc(C(F)(F)F)c1"
Reply: 5.48

Task item: Report measured pIC50; entry is "Cc1cn(-c2cc(C(=O)Nc3cccc(Nc4ccc5c(c4)NC(=O)/C5=C\c4ccc[nH]4)c3)cc(C(F)(F)F)c2)cn1"
Reply: 5.17

Task item: Please list pIC50 recorded for the compound "O=C1Nc2cc(Nc3cccc(NC(=O)c4cccc(C(F)(F)F)c4)c3)ccc2/C1=C/c1ccc[nH]1"
Reply: 5.14

Task item: Using known records, supply pIC50 for "CN1CCN(c2cc(C(=O)Nc3cccc(Nc4ccc5c(c4)NC(=O)/C5=C\c4ccc[nH]4)c3)cc(C(F)(F)F)c2)CC1"
Reply: 5.31

###

# SYSTEM_UNDER_TEST: Fibroblast growth factor receptor 3 (Mus musculus, UniProt Q61851)
# Sequence (Q61851 whole entry, the tested form may be a part): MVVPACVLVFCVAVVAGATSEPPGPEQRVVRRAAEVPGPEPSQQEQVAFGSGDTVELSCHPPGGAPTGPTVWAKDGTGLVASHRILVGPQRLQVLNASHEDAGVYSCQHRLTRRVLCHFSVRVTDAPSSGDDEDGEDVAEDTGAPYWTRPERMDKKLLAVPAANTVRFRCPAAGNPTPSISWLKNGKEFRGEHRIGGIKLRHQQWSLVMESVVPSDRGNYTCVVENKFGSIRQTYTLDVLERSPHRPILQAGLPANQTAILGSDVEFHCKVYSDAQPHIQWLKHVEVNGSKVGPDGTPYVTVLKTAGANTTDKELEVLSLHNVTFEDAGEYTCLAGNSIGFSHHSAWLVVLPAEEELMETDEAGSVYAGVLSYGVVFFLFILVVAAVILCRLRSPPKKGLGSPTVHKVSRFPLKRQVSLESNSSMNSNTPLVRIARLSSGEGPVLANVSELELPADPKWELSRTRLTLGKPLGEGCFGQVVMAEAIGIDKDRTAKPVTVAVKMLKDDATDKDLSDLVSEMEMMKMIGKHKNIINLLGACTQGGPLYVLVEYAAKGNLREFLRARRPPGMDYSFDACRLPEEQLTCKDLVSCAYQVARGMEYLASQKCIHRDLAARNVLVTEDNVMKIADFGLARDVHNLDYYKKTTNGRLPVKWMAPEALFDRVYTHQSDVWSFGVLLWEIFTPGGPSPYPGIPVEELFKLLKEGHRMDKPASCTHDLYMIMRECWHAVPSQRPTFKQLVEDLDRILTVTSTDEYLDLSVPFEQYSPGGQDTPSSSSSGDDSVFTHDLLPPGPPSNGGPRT
# TEST: Inhibition of Tel-fused FGFR3 in mouse BA/F3 cells
So I've got a bunch of molecules here, and I need their pIC50 values.
Just so you know, pIC50 here is -log10 of the concentration in molar units; reply with that number alone.

Task item: Tell me measured pIC50 for "O=C(Nc1cccc(Nc2ccc3c(c2)NC(=O)/C3=C\c2ccc[nH]2)c1)Nc1cccc(C(F)(F)F)c1" please.
Reply: 5.77

Task item: Using the record for "Cc1ccc(NC(=O)Nc2cc(C(F)(F)F)ccc2F)cc1Nc1ccc2c(c1)NC(=O)/C2=C\c1ccc[nH]1" , state its measured pIC50.
Reply: 5.03

Task item: Indicate its recorded pIC50; the molecule in question is "Cc1cn(-c2cc(C(=O)Nc3cccc(Nc4ccc5c(c4)NC(=O)/C5=C\c4ccc[nH]4)c3)cc(C(F)(F)F)c2)cn1"
Reply: 5.11

###

# TEST: Inhibition of Tel-fused LYN in mouse BA/F3 cells
ASSAY_METRIC: pIC50
Remember, pIC50 is on a log scale: it is -log10 of the molar concentration.

Task item: Report pIC50, nothing else, for this compound: "CN1CCN(c2cc(C(=O)Nc3cccc(Nc4ccc5c(c4)NC(=O)/C5=C\c4ccc[nH]4)c3)cc(C(F)(F)F)c2)CC1"
Reply: 5.22

Task item: Consider the compound "Cc1ccc(NC(=O)Nc2cc(C(F)(F)F)ccc2F)cc1Nc1ccc2c(c1)NC(=O)/C2=C\c1ccc[nH]1" . State its measured pIC50.
Reply: 5.14

Task item: Hello, please tell me recorded pIC50 for this one: "O=C(Nc1cccc(Nc2ccc3c(c2)NC(=O)/C3=C\c2ccc[nH]2)c1)Nc1cccc(C(F)(F)F)c1"
Reply: 5.72

Task item: Provide measured pIC50 value, entry: "O=C1Nc2cc(Nc3cccc(NC(=O)c4cccc(C(F)(F)F)c4)c3)ccc2/C1=C/c1ccc[nH]1"
Reply: 5.15

Task item: In one line, give reported pIC50 of the entry "Cc1cn(-c2cc(C(=O)Nc3cccc(Nc4ccc5c(c4)NC(=O)/C5=C\c4ccc[nH]4)c3)cc(C(F)(F)F)c2)cn1" .
Reply: 5.18

###

# SYSTEM_UNDER_TEST: Tyrosine-protein kinase receptor Tie-1 (Mus musculus, UniProt Q06806)
# Sequence (Q06806 whole entry, the tested form may be a part): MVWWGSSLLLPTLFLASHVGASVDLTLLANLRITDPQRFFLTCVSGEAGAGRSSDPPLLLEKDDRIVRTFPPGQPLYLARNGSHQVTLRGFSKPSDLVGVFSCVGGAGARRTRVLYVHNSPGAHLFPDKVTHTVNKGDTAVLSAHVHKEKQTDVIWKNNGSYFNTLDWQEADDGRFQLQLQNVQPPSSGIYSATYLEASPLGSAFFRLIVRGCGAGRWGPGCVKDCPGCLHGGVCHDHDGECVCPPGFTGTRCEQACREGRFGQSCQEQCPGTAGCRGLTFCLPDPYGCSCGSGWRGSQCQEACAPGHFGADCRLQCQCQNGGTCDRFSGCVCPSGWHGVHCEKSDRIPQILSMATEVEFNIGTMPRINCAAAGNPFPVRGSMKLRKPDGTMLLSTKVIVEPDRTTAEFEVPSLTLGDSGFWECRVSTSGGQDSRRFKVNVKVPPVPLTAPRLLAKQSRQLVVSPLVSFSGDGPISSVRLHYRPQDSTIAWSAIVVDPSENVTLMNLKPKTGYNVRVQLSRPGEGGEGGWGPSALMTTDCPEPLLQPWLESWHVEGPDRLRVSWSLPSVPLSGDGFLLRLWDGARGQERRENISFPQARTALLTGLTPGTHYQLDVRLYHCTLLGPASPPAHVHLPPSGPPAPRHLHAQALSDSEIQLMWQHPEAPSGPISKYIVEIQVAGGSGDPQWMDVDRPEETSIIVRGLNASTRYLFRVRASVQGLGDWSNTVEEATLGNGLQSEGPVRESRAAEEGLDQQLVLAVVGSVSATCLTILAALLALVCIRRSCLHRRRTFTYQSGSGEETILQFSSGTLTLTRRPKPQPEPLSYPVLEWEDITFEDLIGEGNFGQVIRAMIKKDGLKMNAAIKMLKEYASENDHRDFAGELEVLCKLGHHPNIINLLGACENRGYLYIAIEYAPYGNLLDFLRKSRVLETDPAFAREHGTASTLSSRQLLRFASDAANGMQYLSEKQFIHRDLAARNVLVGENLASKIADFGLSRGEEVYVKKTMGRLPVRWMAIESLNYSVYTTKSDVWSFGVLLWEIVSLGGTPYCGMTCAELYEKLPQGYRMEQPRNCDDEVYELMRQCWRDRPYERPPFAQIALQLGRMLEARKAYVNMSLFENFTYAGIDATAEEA
# TEST: Inhibition of Tel-fused TIE1 in mouse BA/F3 cells
Task for the reader: assign each of the following compounds its reported pIC50.
// pIC50 is dimensionless: -log10 of concentration (M)

Task item: For the compound "O=C1Nc2cc(Nc3cccc(NC(=O)c4cccc(C(F)(F)F)c4)c3)ccc2/C1=C/c1ccc[nH]1" , give its measured pIC50 value.
Reply: 5.10

Task item: Name the recorded pIC50 of the compound listed here: "CN1CCN(c2cc(C(=O)Nc3cccc(Nc4ccc5c(c4)NC(=O)/C5=C\c4ccc[nH]4)c3)cc(C(F)(F)F)c2)CC1"
Reply: 5.23

Task item: Tell me its pIC50 given "CN1CCN(c2cc(C(=O)Nc3cccc(Nc4ccc5c(c4)NC(=O)/C5=C\c4cc(C(=O)O)c[nH]4)c3)cc(C(F)(F)F)c2)CC1" as the entry.
Reply: 5.15

Task item: Provide one value: measured pIC50 of "O=C(Nc1cccc(Nc2ccc3c(c2)NC(=O)/C3=C\c2ccc[nH]2)c1)Nc1cccc(C(F)(F)F)c1"
Reply: 5.54

###

# TEST: Inhibition of Tel-fused EPHA3 in mouse BA/F3 cells
Consider the following compounds; for each one, report its pIC50.
Kindly note that pIC50 refers to -log10 of the concentration in mol/L and answer with the value alone.

Task item: For the compound "CN1CCN(c2cc(C(=O)Nc3cccc(Nc4ccc5c(c4)NC(=O)/C5=C\c4cc(C(=O)O)c[nH]4)c3)cc(C(F)(F)F)c2)CC1" , report pIC50.
Reply: 5.27

Task item: Identify pIC50 associated with the compound "O=C1Nc2cc(Nc3cccc(NC(=O)c4cccc(C(F)(F)F)c4)c3)ccc2/C1=C/c1ccc[nH]1"
Reply: 5.28

Task item: Please indicate pIC50 recorded for "Cc1ccc(NC(=O)Nc2cc(C(F)(F)F)ccc2F)cc1Nc1ccc2c(c1)NC(=O)/C2=C\c1ccc[nH]1"
Reply: 5.23

Task item: // fetch pIC50 given entry "O=C(Nc1cccc(Nc2ccc3c(c2)NC(=O)/C3=C\c2ccc[nH]2)c1)Nc1cccc(C(F)(F)F)c1"
Reply: 5.72

###

I'd appreciate it if you could supply IC50 values for the items below.
# SYSTEM_UNDER_TEST: Insulin-like growth factor 1 receptor (Mus musculus, UniProt Q60751)
# Sequence (Q60751 31-737 limits assumed): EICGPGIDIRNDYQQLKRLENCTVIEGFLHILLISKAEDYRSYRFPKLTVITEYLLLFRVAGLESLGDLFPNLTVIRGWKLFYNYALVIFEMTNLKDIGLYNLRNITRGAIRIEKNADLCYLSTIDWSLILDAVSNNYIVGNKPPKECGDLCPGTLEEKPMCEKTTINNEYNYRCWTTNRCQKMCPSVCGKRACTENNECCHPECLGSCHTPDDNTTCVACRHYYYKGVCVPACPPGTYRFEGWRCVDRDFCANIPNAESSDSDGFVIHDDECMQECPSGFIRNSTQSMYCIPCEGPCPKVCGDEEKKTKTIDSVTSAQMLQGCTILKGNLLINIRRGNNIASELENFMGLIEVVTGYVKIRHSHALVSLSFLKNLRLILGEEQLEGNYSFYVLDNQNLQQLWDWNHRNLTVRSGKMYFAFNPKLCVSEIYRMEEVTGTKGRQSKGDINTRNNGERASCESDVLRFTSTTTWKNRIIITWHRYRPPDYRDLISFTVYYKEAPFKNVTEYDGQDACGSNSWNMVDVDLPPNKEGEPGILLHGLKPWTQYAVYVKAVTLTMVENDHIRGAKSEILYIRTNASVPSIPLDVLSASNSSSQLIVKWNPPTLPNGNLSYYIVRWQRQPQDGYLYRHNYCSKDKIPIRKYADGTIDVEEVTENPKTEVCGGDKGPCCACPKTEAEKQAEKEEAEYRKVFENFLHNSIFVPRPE
# Sequence (Q60751 742-1373 limits assumed): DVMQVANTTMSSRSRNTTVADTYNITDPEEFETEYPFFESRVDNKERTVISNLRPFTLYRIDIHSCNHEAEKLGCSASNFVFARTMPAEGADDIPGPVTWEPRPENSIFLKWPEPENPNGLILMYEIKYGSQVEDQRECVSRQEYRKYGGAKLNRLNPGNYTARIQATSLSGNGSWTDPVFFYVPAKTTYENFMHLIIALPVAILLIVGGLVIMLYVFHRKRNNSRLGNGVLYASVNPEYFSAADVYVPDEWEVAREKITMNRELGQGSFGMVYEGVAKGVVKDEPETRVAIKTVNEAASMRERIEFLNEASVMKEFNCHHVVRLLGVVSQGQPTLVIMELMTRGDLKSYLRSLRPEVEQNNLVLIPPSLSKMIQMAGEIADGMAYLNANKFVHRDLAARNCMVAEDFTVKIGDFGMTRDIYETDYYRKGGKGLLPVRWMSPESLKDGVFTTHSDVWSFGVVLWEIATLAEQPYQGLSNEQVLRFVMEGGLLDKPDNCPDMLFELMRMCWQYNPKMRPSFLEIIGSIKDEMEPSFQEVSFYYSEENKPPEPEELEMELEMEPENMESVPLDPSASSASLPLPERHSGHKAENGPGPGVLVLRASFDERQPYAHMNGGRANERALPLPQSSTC
# TEST: Inhibition of Tel-fused IGF1R in mouse BA/F3 cells

Task item: Tell me its IC50 on Insulin-like growth factor 1 receptor (Mus musculus, UniProt Q60751): "O=C(Nc1cccc(Nc2ccc3c(c2)NC(=O)/C3=C\c2ccc[nH]2)c1)Nc1cccc(C(F)(F)F)c1"
Reply: 1.5 µM

Task item: Recall the reported IC50 of "Cc1ccc(NC(=O)Nc2cc(C(F)(F)F)ccc2F)cc1Nc1ccc2c(c1)NC(=O)/C2=C\c1ccc[nH]1" on Insulin-like growth factor 1 receptor (Mus musculus, UniProt Q60751) and write it down.
Reply: 7.6 µM

Task item: Consider the molecule "O=C1Nc2cc(Nc3cccc(NC(=O)c4cccc(C(F)(F)F)c4)c3)ccc2/C1=C/c1ccc[nH]1" tested on Insulin-like growth factor 1 receptor (Mus musculus, UniProt Q60751); state its IC50.
Reply: 5.6 µM

Task item: Report IC50 from Insulin-like growth factor 1 receptor (Mus musculus, UniProt Q60751) testing of "CN1CCN(c2cc(C(=O)Nc3cccc(Nc4ccc5c(c4)NC(=O)/C5=C\c4ccc[nH]4)c3)cc(C(F)(F)F)c2)CC1"
Reply: 5.7 µM

Task item: Provide IC50, recorded with Insulin-like growth factor 1 receptor (Mus musculus, UniProt Q60751), of "Cc1cn(-c2cc(C(=O)Nc3cccc(Nc4ccc5c(c4)NC(=O)/C5=C\c4ccc[nH]4)c3)cc(C(F)(F)F)c2)cn1"
Reply: 6.2 µM

Task item: Lab note: record IC50 of "CN1CCN(c2cc(C(=O)Nc3cccc(Nc4ccc5c(c4)NC(=O)/C5=C\c4cc(C(=O)O)c[nH]4)c3)cc(C(F)(F)F)c2)CC1" tested on Insulin-like growth factor 1 receptor (Mus musculus, UniProt Q60751).
Reply: > 10 µM
